assay_info: Method A: solubility of active ingredient in solvent by NMR spectroscopy of a saturated solution
Assay type: physicochemical
measurement_parameters: tebuconazole dissolved in the named solvent
Reported Active Ingredient Solubility: Tebuconazole values for the following compounds.
Field: numeric (wt %). Do not append units.

# compound, numeric_result
measured = [
    ("CCCCCCCCOCC(=O)CC", 12.0),
    ("CCCCOCC(CC)OCC(=O)CC (stereo not drawn)", 10.5),
    ("CCCCCOCC(C)=O", 16.7),
    ("CCCCCCCCOCC(C)=O", 12.5),
    ("CCCCCCOCC(C)OCC(C)=O (stereo not drawn)", 12.5),
    ("CCCCOCC(C)OCC(C)OCC(C)=O (stereo not drawn)", 10.8),
    ("CCCCOCC(C)OCC(C)=O (stereo not drawn)", 15.0),
    ("CCCCOCC(=O)CC", 16.9),
]

Tell me the measured Active Ingredient Solubility: Tebuconazole of CCCCCOCC(C)OCC(C)=O (stereo not drawn) , please.
12.0

###

assay_info: Method A: solubility of active ingredient in solvent by NMR spectroscopy of a saturated solution
Type: physicochemical
measurement_parameters: dicamba acid dissolved in the named solvent
readout_name: Active Ingredient Solubility: Dicamba Acid (wt %)
Field: numeric (wt %). Do not append units.

# count of solved cases: 2
# compound, numeric_result
measured = [
    ("CC(=O)c1ccccc1 [Acetophenone]", 49.8),
    ("CCCCCOCC(C)OCC(C)=O (stereo not drawn) [DPnPent Ketone]", 48.7),
]

Tell me the measured Active Ingredient Solubility: Dicamba Acid of CCCCOCC(=O)CC [BnB Ketone, 1-Butoxy-2-butanone] , please.
48.9

###

assay_info: Method A: solubility of active ingredient in solvent by NMR spectroscopy of a saturated solution
Assay type: physicochemical
measurement_parameters: nitrapyrin dissolved in the named solvent
Returns one of MET or NOT MET; MET when Active Ingredient Solubility: Nitrapyrin is >= 50 wt %.

# count of solved cases: 4
# molecule, label_value
data = [
    ("CCCCCCOCC(=O)CC", "NOT MET"),
    ("CCCCCCOCC(CC)OCC(=O)CC (stereo not drawn)", "NOT MET"),
    ("CC(=O)c1ccccc1", "MET"),
    ("CCCCOCC(C)OCC(C)OCC(C)=O (stereo not drawn)", "NOT MET"),
]

Read the next record carefully.
For this molecule, is measured Active Ingredient Solubility: Nitrapyrin 50 wt % or higher? CCCCOCC(=O)CC
MET

###

Reported Active Ingredient Solubility: 2,4-D Acid values for the following compounds.
assay_info: Method A: solubility of active ingredient in solvent by NMR spectroscopy of a saturated solution
Type: physicochemical
measurement_parameters: 2,4-dichlorophenoxyacetic acid dissolved in the named solvent
Field: numeric (wt %). Do not append units.

# count of solved cases: 5
# compound, numeric_result
measured = [
    ("CCCCCOCC(C)=O [PnPent Ketone, 1-Pentyloxy-2-propanone]", 17.3),
    ("CCCCOCC(CC)OCC(=O)CC (stereo not drawn) [DBnB Ketone, 1-((1-Butoxy-2-butanyl)oxy)-2-butanone]", 13.2),
    ("CCCCCCOCC(CC)OCC(=O)CC (stereo not drawn) [DBnH Ketone]", 10.9),
    ("CCCCOCC(C)OCC(C)=O (stereo not drawn) [DPnB Ketone]", 18.3),
    ("CCCCCCCCOCC(=O)CC [BnO Ketone, 1-Octyloxy-2-butanone]", 10.2),
]

Tell me the measured Active Ingredient Solubility: 2,4-D Acid of CCCCOCC(=O)CC [BnB Ketone, 1-Butoxy-2-butanone] , please.
15.6

Subsequent entry: CCCCCCOCC(C)OCC(C)=O (stereo not drawn) [DPnH Ketone]
16.4

Subsequent entry: CCCCOCC(C)=O [PnB Ketone, 1-Butoxy-2-propanone]
20.2

Subsequent entry: CCCCCCCCOCC(C)=O [PnO Ketone, 1-Octyloxy-2-propanone]
12.6
